# assay system: Sigma non-opioid intracellular receptor 1 (Cavia porcellus)
# Sequence (Q60492 whole entry): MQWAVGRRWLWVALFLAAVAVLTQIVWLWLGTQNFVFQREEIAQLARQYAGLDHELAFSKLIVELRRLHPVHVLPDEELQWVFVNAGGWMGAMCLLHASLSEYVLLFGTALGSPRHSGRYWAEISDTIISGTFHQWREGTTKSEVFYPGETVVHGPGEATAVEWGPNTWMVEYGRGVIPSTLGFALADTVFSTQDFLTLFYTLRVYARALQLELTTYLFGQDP
# experimental protocol: Displacement of [3H]pentazocine from guinea pig sigma1 receptor measured after 90 mins by microbeta scintillation counting method
pKi: −log10 of the molar value.
Assign class by pKi: not lower than 8 means YES; lower than 8 means NO.

Q: Would you say COc1ccc(C[C@H]2C(=O)C[C@@H]3CCN(CCC(C)C)[C@@H]4CCC[C@H]2[C@@H]34)cc1 shows pKi at minimum 8?
A: YES

---

# Tested on: PC-12
# experimental protocol: Selectivity ratio of Ki for sigma2 receptor in rat PC12 cells to Ki for guinea pig sigma1 receptor
# Type: cell-based
Assign class by Ratio Ki: not lower than 3 means Condition met; lower than 3 means Condition not met.

These recorded examples may help you get a feel for the data.
Q: Would you say CCCN1CC[C@H]2c3cc4cc(Cl)ccc4nc3[C@H](CC)[C@H]3CCC[C@@H]1[C@@H]32 shows Ratio Ki at minimum 3?
A: Condition not met

Q: Would you say CCCN1CC[C@H]2CC(=O)[C@H](Cc3ccccc3)[C@H]3CCC[C@@H]1[C@H]23 shows Ratio Ki at minimum 3?
A: Condition met

Q: Would you say CN1CC[C@H]2CC(=O)[C@H](Cc3ccccc3)[C@H]3CCC[C@@H]1[C@H]23 shows Ratio Ki at minimum 3?
A: Condition met

Q: Would you say CCCN1CC[C@H]2CC(=O)[C@H](Cc3ccc(OC)cc3)[C@H]3CCC[C@@H]1[C@H]23 shows Ratio Ki at minimum 3?
A: Condition met

Q: Would you say CCCN1CC[C@H]2c3cc4cccc(OC)c4nc3[C@H](CC)[C@H]3CCC[C@@H]1[C@@H]32 shows Ratio Ki at minimum 3?
A: Condition not met

Q: Would you say CC[C@H]1C(=O)C[C@@H]2CCN(C)[C@@H]3CCC[C@H]1[C@@H]23 shows Ratio Ki at minimum 3?
A: Condition met

Q: Would you say O=C1C[C@@H]2CCN(CC3CCCCC3)[C@@H]3CCC[C@@H]([C@@H]23)[C@H]1Cc1ccccc1 shows Ratio Ki at minimum 3?
A: Condition not met

Q: Would you say CC[C@H]1c2nc3ccccc3cc2[C@@H]2CCN(C)[C@@H]3CCC[C@H]1[C@H]32 shows Ratio Ki at minimum 3?
A: Condition not met

---
Q: Would you say CCCCCCCN1CC[C@H]2CC(=O)[C@H](CC)[C@H]3CCC[C@@H]1[C@H]23 shows Ratio Ki at minimum 3?
A: Condition met

Q: Would you say O=C1C[C@@H]2CCN(Cc3nccs3)[C@@H]3CCC[C@@H]([C@@H]23)[C@H]1Cc1ccccc1 shows Ratio Ki at minimum 3?
A: Condition met

Q: Would you say CC[C@H]1C(=O)C[C@@H]2CCN(CC3CCCCC3)[C@@H]3CCC[C@H]1[C@@H]23 shows Ratio Ki at minimum 3?
A: Condition not met

Q: Would you say COCCN1CC[C@H]2CC(=O)[C@H](Cc3ccccc3)[C@H]3CCC[C@@H]1[C@H]23 shows Ratio Ki at minimum 3?
A: Condition met

Q: Would you say O=C1C[C@@H]2CCN(Cc3cccs3)[C@@H]3CCC[C@@H]([C@@H]23)[C@H]1Cc1ccccc1 shows Ratio Ki at minimum 3?
A: Condition met

Q: Would you say CC[C@H]1C(=O)C[C@@H]2CCN(C(=O)NCc3ccc(Cl)cc3)[C@@H]3CCC[C@H]1[C@@H]23 shows Ratio Ki at minimum 3?
A: Condition not met

Q: Would you say COc1ccc(C[C@H]2C(=O)C[C@@H]3CCN(CC4CCCCC4)[C@@H]4CCC[C@H]2[C@@H]34)cc1 shows Ratio Ki at minimum 3?
A: Condition not met

Q: Would you say CC[C@H]1C(=O)C[C@@H]2CCN(Cc3nccs3)[C@@H]3CCC[C@H]1[C@@H]23 shows Ratio Ki at minimum 3?
A: Condition not met

Q: Would you say CCCN1CC[C@H]2C[C@@H](O)[C@H](CC)[C@H]3CCC[C@@H]1[C@H]23 shows Ratio Ki at minimum 3?
A: Condition met
